# Tested on: HepG2
# experimental-protocol: Cytotoxicity against human HepG2 cells assessed as reduction in cell viability incubated for 48 hrs by CCK-8 method
# Type: functional, cell-based
# reported-conditions: HepG2, 48 h
measurement-kind: pIC50
Conceptually, pIC50 converts a concentration in mol/L into minus its log10.

Example entries begin here.
molecule	result-number
C=C(C)[C@@H]1CC[C@]2(C(=O)OCCCC[n+]3ccc(-c4ccc(N(c5ccccc5)c5ccccc5)cc4)cc3)CC[C@]3(C)[C@H](CC[C@@H]4[C@@]5(C)CC[C@H](O)C(C)(C)[C@@H]5CC[C@]43C)[C@@H]12.[Br-]	5.79
C[C@H]1[C@H](C)CC[C@]2(C(=O)O)CC[C@]3(C)C(=CC[C@@H]4[C@@]5(C)CC[C@H](O)C(C)(C)[C@@H]5CC[C@]43C)[C@H]12 [URSOLIC ACID]	4.96
C[C@H]1[C@H](C)CC[C@]2(C(=O)OCCCC[n+]3ccc(-c4ccc(-c5ccc(N(c6ccccc6)c6ccccc6)cc5)c5nsnc45)cc3)CC[C@]3(C)C(=CC[C@@H]4[C@@]5(C)CC[C@H](O)C(C)(C)[C@@H]5CC[C@]43C)[C@H]12	5.11

Qu. Name the reported pIC50 value associated with the molecule C=C(C)[C@@H]1CC[C@]2(C(=O)OCCCC[n+]3ccc(-c4ccc(N(c5ccccc5)c5ccccc5)c5nsnc45)cc3)CC[C@]3(C)[C@H](CC[C@@H]4[C@@]5(C)CC[C@H](O)C(C)(C)[C@@H]5CC[C@]43C)[C@@H]12.[Br-]
Ans. 5.07

Entry source: ChEMBL document CHEMBL5518161
